Molecular target: Intestinal-type alkaline phosphatase (Homo sapiens)
Test: human IAP inhibitors, confirmation, biochemical, luminescence, single concentration, uHTS hits (AID 434927)
Conditions: purified human IAP, CDP-Star luminescence, 30 min; at 8.3 µM; active compounds read high
Categories are assigned from the measured inhibition using these intervals: bucket A: < -50%; bucket B: ≥ -50% and < 40%; bucket C: ≥ 40%

Solved cases below.
> print(dat)
                                   molecule  answer.label
1  COc1ccccc1N(C)S(=O)(=O)c1ccc(Cl)c(C(=O)NNC(=O)c2ccccc2O)c1      bucket C
2  CC(=O)N1CCOc2ccc(S(=O)(=O)N3CCCC(C)C3)cc21 (stereo not drawn)      bucket C
3  NC(CO)C(=O)NNCc1ccc(O)c(O)c1O (stereo not drawn)      bucket A
4  CSCCC(NS(=O)(=O)c1ccc(C)cc1)C(=O)NNC(=O)c1csc(N2CCOCC2)n1 (stereo not drawn)      bucket C

Prompt: Band for the recorded inhibition of c1ccc(-c2cccc(-c3ccccn3)n2)nc1 ?
Completion: bucket A

Prompt: What do you get for OC1CN=C2Sc3ccccc3N2C1 (stereo not drawn) ?
Completion: bucket A

Prompt: Moving on to O=C(Cc1coc2ccc3ccccc3c12)NCc1ccccc1
Completion: bucket C

Prompt: Note, next up: O=C(O)C1OC(Oc2c(-c3ccc(O)c(O)c3)oc3cc(O)cc(O)c3c2=O)C(O)C(O)C1O (stereo not drawn)
Completion: bucket B

Prompt: How about this molecule: c1ccc(CSCCc2ccncc2)cc1
Completion: bucket B

Prompt: Lookup CC1=NN(c2nc3ccccc3[nH]2)C(=O)/C1=C/N(C)C
Completion: bucket A

Prompt: Let us now turn to Cc1cccc(-n2ncc3c(NNC(=O)c4ccco4)ncnc32)c1
Completion: bucket A

Prompt: Here is the next molecule: CCOc1ccc(NC(=O)CSc2nncn2C)cc1
Completion: bucket A

Prompt: Moving on to O=c1c2ccccc2nc(N/N=C/c2c(O)ccc3ccccc23)n1O
Completion: bucket A

Prompt: Next up: CCN(CC)c1ccc(/C=N/NC(=O)c2nnn(-c3nonc3N)c2C(C)C)c(O)c1
Completion: bucket B

Prompt: How about CCC(OC(=O)C1=Cc2ccccc2OC1)C(=O)NC1CCCC1 (stereo not drawn) ?
Completion: bucket A

Prompt: For C=CCN1C(=O)/C(=C\C=C2\N(C)c3ccccc3C2(C)C)SC1=S then?
Completion: bucket A

* * *

Target: Intestinal-type alkaline phosphatase (Homo sapiens) (UniProt P09923)
Sequence (P09923 whole entry, looked up): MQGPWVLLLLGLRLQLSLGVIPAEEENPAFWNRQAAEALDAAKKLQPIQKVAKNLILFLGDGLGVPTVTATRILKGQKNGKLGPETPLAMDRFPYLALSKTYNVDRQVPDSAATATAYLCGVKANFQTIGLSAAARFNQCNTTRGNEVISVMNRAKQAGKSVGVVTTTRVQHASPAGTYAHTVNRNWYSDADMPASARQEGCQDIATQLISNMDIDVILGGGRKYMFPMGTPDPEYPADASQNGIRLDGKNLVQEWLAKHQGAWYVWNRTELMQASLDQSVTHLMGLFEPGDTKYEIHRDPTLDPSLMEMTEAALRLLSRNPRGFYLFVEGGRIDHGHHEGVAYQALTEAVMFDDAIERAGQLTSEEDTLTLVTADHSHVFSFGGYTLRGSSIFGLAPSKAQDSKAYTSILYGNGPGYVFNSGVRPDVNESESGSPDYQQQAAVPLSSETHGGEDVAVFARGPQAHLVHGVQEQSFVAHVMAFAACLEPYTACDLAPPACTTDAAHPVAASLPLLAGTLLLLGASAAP
Assay: human IAP inhibitors, confirmation, biochemical, luminescence, single concentration, uHTS hits (AID 434927)
Conditions: purified human IAP, CDP-Star luminescence, 30 min; at 8.3 µM
Activity calls are given as the source filed them.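 The calls were made as follows: active = inhibition above about 23% in any of six single-dose repeats (limit read from the data); inactive = the rest.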
Write down the outcome that applies. Available outcomes: active, inactive

Below, 6 compounds whose answers are already recorded.
> print(dat)
                                   compound  answer.label
1  CCn1c2ccccc2c2cc(NC(=O)c3coc(=O)c(Br)c3)ccc21        active
2  CCOC(=O)c1cnc(-n2nc(C)cc2C)nc1NNc1nc(C)cc(C)n1        active
3  Cc1cc(C)cc(OCC(=O)NNC(=O)c2cc(C)[nH]n2)c1      inactive
4  Cc1cccc(SCc2noc(C(=O)NCC3CCCO3)c2C(=O)O)c1 (stereo not drawn)      inactive
5              CNc1nnc(-c2cc3ccccc3oc2=O)s1        active
6  CN(Cc1ccccc1)C(=O)c1[nH]cnc1C(=O)Nc1nccs1      inactive

Prompt: Look up the recorded call for Cc1ccc(NC(=O)C2CC(=O)Nc3nc4ccccc4n32)c(C)c1 (stereo not drawn) in this test.
Completion: active

Prompt: Entry to check: O=C(NNC(=S)NC1CCCCC1)c1ccccc1Br
Completion: inactive

Prompt: What do you get for O=Nc1[nH]c(=O)c(/C=C(\O)c2ccccc2)nc1NO ?
Completion: inactive

Prompt: // query: N#C/C(=C\c1ccc(O)c(O)c1)C(=O)c1ccc(O)c(O)c1
Completion: active

Prompt: Same again, this time with COc1ccc(CCN2C(=O)c3ccncc3C2=O)cc1OC
Completion: active

Prompt: How about this compound: Cc1ccc(-c2cc(C(=O)N/N=C/c3ccccc3O)n[nH]2)o1
Completion: active
